FYI, the data here is from patent US20230242496A1.

- study_system: (His)6-SOX11-DBD protein (Homo sapiens, UniProt P35716)
- Construct: Recombinant (His)6-SOX11-DBD protein was immobilized
- Sequence (P35716 49-117 limits assumed): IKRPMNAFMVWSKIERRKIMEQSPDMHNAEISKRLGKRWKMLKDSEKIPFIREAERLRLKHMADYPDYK
- assay_comment: Surface Plasmon Resonance (SPR) assay
- measurement_parameters: immobilized recombinant (His)6-SOX11-DBD, 25° C., compounds 5-40 μM, mean of three experiments
- Description: Surface Plasmon Resonance (SPR) Assay Recombinant (His)6-SOX11-DBD protein was immobilized at a flow rate of 10 μl/min for 180 seconds to the right channel of a gold-coated SCR NiHC200M sensor chip (XanTec bioanalytics) placed in a Reichert 2SPR instrument (Reichert Technologies). […] The ka, kd, and KD values were determined from the sensograms for at least 3 concentrations of each compound by curve fitting the data using Reichert's TraceDrawer software. […]

{"molecule": "Cc1cccc(N(C)S(=O)(=O)c2ccc(NC(=O)c3ccc4c(c3)CCCS4)cc2)c1", "Kd (µM)": 4.55}
{"molecule": "O=C(Nc1cccc(S(=O)(=O)N2CCCC2)c1)c1ccc2c(c1)CCCS2", "Kd (µM)": 1.98}
{"molecule": "CC1Sc2ccc(C(=O)Nc3ccccc3S(=O)(=O)Nc3ccccc3)cc2NC1=O (centres unmarked)", "Kd (µM)": 29.2}
{"molecule": "CC1Sc2ccc(C(=O)Nc3cccc(S(=O)(=O)Nc4ccccc4C(F)(F)F)c3)cc2NC1=O (centres unmarked)", "Kd (µM)": 91.7}
{"molecule": "CC1Sc2ccc(C(=O)Nc3ccc(S(=O)(=O)NC4CCNCC4)cc3)cc2NC1=O (centres unmarked)", "Kd (µM)": 100}
{"molecule": "CC1Sc2ccc(C(=O)Nc3cccc(S(=O)(=O)NC4CCNCC4)c3)cc2NC1=O (centres unmarked)", "Kd (µM)": 54.6}
{"molecule": "CC1Sc2ccc(C(=O)Nc3cccc(S(=O)(=O)Nc4ccc(Cl)cc4)c3)cc2NC1=O (centres unmarked)", "Kd (µM)": 4.24}
{"molecule": "CC1Sc2ccc(C(=O)Nc3ccc(S(=O)(=O)Nc4cccc(F)c4)cc3)cc2NC1=O (centres unmarked)", "Kd (µM)": 1.26}
{"molecule": "CC(=O)N1CCN(S(=O)(=O)c2ccc(NC(=O)c3ccc4snnc4c3)cc2)CC1", "Kd (µM)": 16.9}
{"molecule": "CN(Cc1cccc(NC(=O)c2ccc3c(c2)CCCS3)c1)c1ccccc1", "Kd (µM)": 37.5}
{"molecule": "c1ncc2ccc(NCc3ccc(OCC4CCCCC4)cc3)cc2n1", "Kd (µM)": 8.28}
{"molecule": "O=C(Nc1cccc(OCc2ccccc2)c1)c1ccc2oc(=O)[nH]c2c1", "Kd (µM)": 12.4}
{"molecule": "CC1Sc2ccc(NC(=O)c3ccc(S(=O)(=O)Nc4ccccc4)c(F)c3)cc2NC1=O (centres unmarked)", "Kd (µM)": 16.1}
{"molecule": "CN1C(=O)CSc2ccc(C(=O)Nc3ccc(CN4CCCCCC4)cc3)cc21", "Kd (µM)": 6.93}
{"molecule": "CC1Sc2ccc(C(=O)Nc3ccc(CN4CCCC4)cc3)cc2NC1=O (centres unmarked)", "Kd (µM)": 71.5}
{"molecule": "Cc1ccccc1COc1ccc(NC(=O)c2ccc3c(c2)NC(=O)C(C)S3)cc1 (centres unmarked)", "Kd (µM)": 7.91}
{"molecule": "CC1Sc2ccc(C(=O)Nc3ccc(Cl)c(S(=O)(=O)N(C)C(C)C)c3)cc2NC1=O (centres unmarked)", "Kd (µM)": 13.4}
{"molecule": "CC1Sc2ccc(C(=O)Nc3ccc(S(=O)(=O)N4CCCC4)c(Cl)c3)cc2N(C)C1=O (centres unmarked)", "Kd (µM)": 20.4}
{"molecule": "CC1Sc2ccc(C(=O)Nc3cccc(S(=O)(=O)Nc4ccccc4)c3)cc2NC1=O (centres unmarked)", "Kd (µM)": 18.6}
{"molecule": "CN1C(=O)CSc2ccc(C(=O)Nc3ccc(S(C)(=O)=O)c(Cl)c3)cc21", "Kd (µM)": 141}

---

- study_system: (His)6-SOX11-DBD protein (Homo sapiens, UniProt P35716)
- Construct: Recombinant (His)6-SOX11-DBD protein was immobilized
- assay_comment: Surface Plasmon Resonance (SPR) assay
- measurement_parameters: immobilized recombinant (His)6-SOX11-DBD, 25° C., compounds 5-40 μM, mean of three experiments
Could you mark each record Fulfilled if its Kd falls strictly under 2000 nM, and Not fulfilled if it equals or exceeds it?

{"molecule": "CCN(c1ccccc1)S(=O)(=O)c1cccc(NC(=O)c2ccc3snnc3c2)c1", "study_system": "(His)6-SOX11-DBD protein (Homo sapiens, UniProt P35716)", "class": "Not fulfilled"}
{"molecule": "CCN(c1ccccc1)S(=O)(=O)c1ccc(NC(=O)c2ccc3c(c2)CCCS3)cc1", "study_system": "(His)6-SOX11-DBD protein (Homo sapiens, UniProt P35716)", "class": "Not fulfilled"}
{"molecule": "Nc1cc(C(=O)Nc2ccc(S(=O)(=O)Nc3ccccc3)cc2)ccc1/C=C\\C(=O)O", "study_system": "(His)6-SOX11-DBD protein (Homo sapiens, UniProt P35716)", "class": "Not fulfilled"}
{"molecule": "CC1Sc2ccc(NC(=O)c3ccc(S(=O)(=O)Nc4ccccc4)cc3)cc2NC1=O (centres unmarked)", "study_system": "(His)6-SOX11-DBD protein (Homo sapiens, UniProt P35716)", "class": "Not fulfilled"}
{"molecule": "O=C1CSc2ccc(C(=O)Nc3ccc(CNc4ccccc4)cc3)cc2N1", "study_system": "(His)6-SOX11-DBD protein (Homo sapiens, UniProt P35716)", "class": "Fulfilled"}

---

- Tested on: Jeko-1 (SOX11+)
- assay_comment: Cell viability assay (CellTiter-Blue resazurin reduction)
- Format: cell-based
- measurement_parameters: Homo sapiens, JeKo-1, 72 h, JeKo-1 cells, 20 μM compound, normalized to 0.2% DMSO
Here the recorded viability at 20 µM is given for each entry.
attribute_measured: viability at 20 µM (%)

{"molecule": "Cc1nc2cc(C(=O)Nc3ccc(S(=O)(=O)Nc4ccccc4)cc3)ccc2s1", "study_system": "Jeko-1 (SOX11+)", "attribute_measured": "viability at 20 µM", "numeric_value": 16.6}
{"molecule": "O=C(Nc1ccc(S(=O)(=O)N2CCCCC2)c(Cl)c1)c1ccc2c(c1)CCCS2", "study_system": "Jeko-1 (SOX11+)", "attribute_measured": "viability at 20 µM", "numeric_value": 35.1}
{"molecule": "CC1Sc2ccc(C(=O)Nc3ccc(S(=O)(=O)Nc4ccncc4)cc3)cc2NC1=O (stereo not shown)", "study_system": "Jeko-1 (SOX11+)", "attribute_measured": "viability at 20 µM", "numeric_value": 103}
{"molecule": "Cc1ccc(NS(=O)(=O)c2ccc(NC(=O)c3ccc4c(c3)NC(=O)C(C)S4)cc2)cc1 (stereo not shown)", "study_system": "Jeko-1 (SOX11+)", "attribute_measured": "viability at 20 µM", "numeric_value": 0.51}
{"molecule": "O=C1Cc2ccc(C(=O)Nc3ccc(S(=O)(=O)Nc4ccccc4)cc3)cc2N1", "study_system": "Jeko-1 (SOX11+)", "attribute_measured": "viability at 20 µM", "numeric_value": 81.5}
{"molecule": "O=C(Nc1cccc(OCc2ccccc2)c1)c1ccc2snnc2c1", "study_system": "Jeko-1 (SOX11+)", "attribute_measured": "viability at 20 µM", "numeric_value": 98.1}
{"molecule": "CC1Sc2ccc(C(=O)Nc3ccc(S(=O)(=O)Nc4ccc(O)cc4)cc3)cc2NC1=O (stereo not shown)", "study_system": "Jeko-1 (SOX11+)", "attribute_measured": "viability at 20 µM", "numeric_value": 13.7}
{"molecule": "CC1Sc2ccc(C(=O)Nc3ccc(S(=O)(=O)NC4CCNCC4)cc3)cc2NC1=O (stereo not shown)", "study_system": "Jeko-1 (SOX11+)", "attribute_measured": "viability at 20 µM", "numeric_value": 80.7}
{"molecule": "C[C@@H]1Sc2ccc(C(=O)Nc3ccc(S(=O)(=O)Nc4ccccc4)cc3)cc2NC1=O", "study_system": "Jeko-1 (SOX11+)", "attribute_measured": "viability at 20 µM", "numeric_value": 12.8}
{"molecule": "CC1Sc2ccc(C(=O)Nc3ccc(S(C)(=O)=O)cc3)cc2NC1=O (stereo not shown)", "study_system": "Jeko-1 (SOX11+)", "attribute_measured": "viability at 20 µM", "numeric_value": 30.6}

---

- study_system: (His)6-SOX11-DBD protein (Homo sapiens, UniProt P35716)
- Construct: Recombinant (His)6-SOX11-DBD protein was immobilized
- assay_comment: Surface Plasmon Resonance (SPR) assay
- measurement_parameters: immobilized recombinant (His)6-SOX11-DBD, 25° C., compounds 5-40 μM, mean of three experiments
Could you mark each record Met if its Kd falls strictly under 7 µM, and Not met if it equals or exceeds it?

{"compound": "CC1Sc2ccc(C(=O)N(c3ccccc3)S(=O)(=O)c3ccc(N)cc3)cc2NC1=O (stereo not drawn)", "class": "Not met"}
{"compound": "O=C(Nc1ccc(S(=O)(=O)N2CCCCC2)cc1)c1ccc2c(c1)N(c1ccccc1)C(=O)CS2", "class": "Met"}
{"compound": "O=C(Nc1ccc(S(=O)(=O)Nc2ccccc2)cc1)c1ccc2cccnc2c1", "class": "Met"}
{"compound": "CC1Sc2ccc(C(=O)Nc3ccc(S(=O)(=O)Nc4ccccc4)cc3F)cc2NC1=O (stereo not drawn)", "class": "Not met"}
{"compound": "O=C1COc2ccc(C(=O)Nc3ccc(CNc4ccccc4)cc3)cc2N1", "class": "Met"}
{"compound": "CC1Sc2ccc(C(=O)Nc3cccc(S(=O)(=O)N4CCNCC4)c3)cc2NC1=O (stereo not drawn)", "class": "Not met"}
{"compound": "c1ccc(OCc2ccc(CNc3ccc4cncnc4c3)cc2)cc1", "class": "Not met"}
{"compound": "CC1Sc2ccc(C(=O)Nc3cccc(S(=O)(=O)N4CCCCC4)c3)cc2NC1=O (stereo not drawn)", "class": "Not met"}
{"compound": "FC(F)(F)c1cc(OCc2ccccc2)ccc1CNc1ccc2cncnc2c1", "class": "Met"}
{"compound": "Cc1ccc(NS(=O)(=O)c2ccc(NC(=O)c3ccc4c(c3)NC(=O)C(C)S4)cc2)cc1 (stereo not drawn)", "class": "Not met"}
{"compound": "CN1C(=O)CSc2ccc(C(=O)Nc3ccc(S(=O)(=O)N4CCCCC4)c(Cl)c3)cc21", "class": "Met"}
{"compound": "CC1Sc2ccc(C(=O)Nc3ccc(S(=O)(=O)N4CCCCC4)cc3)cc2NC1=O (stereo not drawn)", "class": "Met"}
{"compound": "CC1Sc2ccc(C(=O)Nc3ccc(S(=O)(=O)Nc4ccccc4)cc3)cc2NC1=O (stereo not drawn) [drawing 468]", "class": "Not met"}
{"compound": "CN1C(=O)CSc2ccc(C(=O)Nc3ccc(S(=O)(=O)N4CCCC4)c(Cl)c3)cc21", "class": "Not met"}
{"compound": "CC1Sc2ccc(C(=O)Nc3ccc(S(=O)(=O)N4CCCC4)c(Cl)c3)cc2NC1=O (stereo not drawn)", "class": "Not met"}
{"compound": "CC1Sc2ccc(C(=O)Nc3ccc(Cl)c(S(=O)(=O)N4CCCC4)c3)cc2NC1=O (stereo not drawn)", "class": "Not met"}
{"compound": "O=C(Nc1ccc(S(=O)(=O)Nc2ccccc2)cc1)c1ccc2nc[nH]c2c1", "class": "Not met"}
{"compound": "CN(Cc1ccc(NC(=O)c2ccc3oc(=O)[nH]c3c2)cc1)c1ccccc1", "class": "Not met"}
{"compound": "CC(C)NS(=O)(=O)c1ccc(NC(=O)c2ccc3c(c2)NC(=O)C(C)S3)cc1 (stereo not drawn)", "class": "Not met"}
{"compound": "CC1Sc2ccc(C(=O)Nc3ccc(S(=O)(=O)Nc4cccc(C(F)(F)F)c4)cc3)cc2NC1=O (stereo not drawn)", "class": "Met"}
{"compound": "CC1Sc2ccc(C(=O)Nc3ccc(CN(C)c4ccccc4)cc3)cc2NC1=O (stereo not drawn)", "class": "Met"}
{"compound": "Cc1cccc(NCc2ccc(NC(=O)c3ccc4c(c3)NC(=O)C(C)S4)cc2)c1 (stereo not drawn)", "class": "Not met"}
{"compound": "CC(C)NS(=O)(=O)c1cccc(NC(=O)c2ccc3c(c2)NC(=O)C(C)S3)c1 (stereo not drawn)", "class": "Not met"}
{"compound": "CN(Cc1cccc(NC(=O)c2ccc3oc(=O)[nH]c3c2)c1)c1ccccc1", "class": "Not met"}
{"compound": "c1ccc(CNc2ccc(CNc3ccc4cncnc4c3)cc2)cc1", "class": "Not met"}
{"compound": "CC1Sc2ccc(C(=O)Nc3ccc(S(=O)(=O)N4CCOCC4)cc3)cc2NC1=O (stereo not drawn)", "class": "Not met"}
{"compound": "CC1Sc2ccc(C(=O)Nc3ccc(S(=O)(=O)N(C)C(C)C)cc3)cc2NC1=O (stereo not drawn)", "class": "Not met"}
{"compound": "Clc1cc(CNc2ccc3cncnc3c2)ccc1OCc1ccccc1", "class": "Met"}
{"compound": "Cc1ccccc1COc1cccc(NC(=O)c2ccc3c(c2)NC(=O)C(C)S3)c1 (stereo not drawn)", "class": "Met"}
{"compound": "Clc1cccc(COc2ccc(CNc3ccc4cncnc4c3)cc2)c1", "class": "Met"}
{"compound": "CN(Cc1ccc(NC(=O)c2ccc3c(c2)NC(=O)CS3)cc1)c1ccccc1", "class": "Not met"}
{"compound": "CC1Sc2ccc(C(=O)Nc3ccc(S(=O)(=O)N4CCCC4)cc3)cc2NC1=O (stereo not drawn)", "class": "Not met"}
{"compound": "CN(Cc1ccccc1)c1ccc(CNc2ccc3cccnc3c2)cc1", "class": "Not met"}
{"compound": "O=C(Nc1ccc(S(=O)(=O)Nc2ccccc2)cc1)c1ccc2c(c1)CCCS2", "class": "Met"}
{"compound": "CC1Sc2ccc(C(=O)Nc3ccc(S(=O)(=O)Nc4ccc(C(F)(F)F)cc4)cc3)cc2NC1=O (stereo not drawn)", "class": "Met"}
{"compound": "O=C(Nc1ccc(S(=O)(=O)N2CCCCC2)cc1)c1ccc2c(c1)N(Cc1ccccc1)C(=O)CS2", "class": "Not met"}
{"compound": "Cc1ccc(NC(=O)c2ccc3c(c2)NC(=O)CS3)cc1S(=O)(=O)Nc1cccc(Cl)c1", "class": "Met"}
{"compound": "CC(C)C1Sc2ccc(C(=O)Nc3ccc(S(=O)(=O)Nc4ccccc4)cc3)cc2NC1=O (stereo not drawn)", "class": "Met"}
{"compound": "Cc1cc(C(=O)Nc2ccc(S(=O)(=O)Nc3ccccc3)cc2)nc(NCCN)n1", "class": "Not met"}
